// provenance: patent US4049808A

# LD50 values compiled below
Experiment Description: Oral LD50 in mice
Condition Label: mouse, in vivo
Supply the numeric figure in mg/kg, leaving out any unit text.

Given Cc1ccccc1CCC1CNCCO1 (stereo not drawn) [2-[β-(2-methylphenyl)ethyl]morpholine] , state its recorded LD50.
550

Now consider the entry below.
Given c1ccc(Oc2ccccc2CCC2CNCCO2)cc1 (stereo not drawn) [2-[β-(2-phenoxyphenyl)ethyl]morpholine] , state its recorded LD50.
1000
